target: human CD33 Y49A (human, UniProt P20138 18-364); test: alanine scan, flow cytometry;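 also: HEK293-T cells transiently expressing single-residue alanine mutants of CD33 (alanine swapped to serine), antibody binding read by fluorescence in duplicate, background-subtracted, expressed relative to wild-type CD33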
Sequence (P20138 18-364 Y49A limits assumed): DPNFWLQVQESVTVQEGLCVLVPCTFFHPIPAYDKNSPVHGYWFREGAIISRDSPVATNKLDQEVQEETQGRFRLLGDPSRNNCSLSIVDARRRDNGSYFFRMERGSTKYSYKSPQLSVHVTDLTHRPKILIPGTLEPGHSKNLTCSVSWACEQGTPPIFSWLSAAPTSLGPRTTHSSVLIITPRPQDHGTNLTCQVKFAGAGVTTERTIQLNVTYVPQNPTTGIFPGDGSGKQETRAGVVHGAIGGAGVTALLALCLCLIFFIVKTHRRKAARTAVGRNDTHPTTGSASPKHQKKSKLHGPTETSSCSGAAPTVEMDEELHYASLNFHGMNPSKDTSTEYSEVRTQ
OBSERVED PROPERTY: Mean % WT Binding (% WT)
Answer with a number only, understood to be in % WT.

q: Please look up its Mean % WT Binding: Refmab #2 (antibody, V domains shown, Full-length format is human IgG1 Fc silent (PG-LALA); The alanine scan used IgG or Fab) VH: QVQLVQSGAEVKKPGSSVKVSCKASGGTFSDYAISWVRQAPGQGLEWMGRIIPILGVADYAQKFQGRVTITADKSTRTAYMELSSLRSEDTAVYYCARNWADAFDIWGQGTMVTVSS VL: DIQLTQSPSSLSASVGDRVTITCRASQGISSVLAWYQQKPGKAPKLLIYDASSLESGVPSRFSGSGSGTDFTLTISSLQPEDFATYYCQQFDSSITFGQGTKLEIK
a: 44.2

q: Same for Refmab #3 (antibody, V domains shown, Full-length format is human IgG1 Fc silent (PG-LALA); The alanine scan used IgG or Fab) VH: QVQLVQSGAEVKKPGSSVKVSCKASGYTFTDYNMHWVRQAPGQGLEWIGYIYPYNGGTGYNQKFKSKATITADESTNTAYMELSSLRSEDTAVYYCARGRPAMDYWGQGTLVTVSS VL: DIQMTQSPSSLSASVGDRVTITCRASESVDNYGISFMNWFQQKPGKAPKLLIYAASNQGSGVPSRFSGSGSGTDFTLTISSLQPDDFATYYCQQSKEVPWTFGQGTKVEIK
a: 86.6

q: Same for Refmab #1 (antibody, V domains shown, Full-length format is human IgG1 (Absolute Antibody Ab00283-10.0); The alanine scan used IgG or Fab; also called hP67.6) VH: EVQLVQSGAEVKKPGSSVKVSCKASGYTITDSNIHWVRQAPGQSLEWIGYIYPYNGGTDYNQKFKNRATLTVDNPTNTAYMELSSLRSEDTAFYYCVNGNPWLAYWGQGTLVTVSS VL: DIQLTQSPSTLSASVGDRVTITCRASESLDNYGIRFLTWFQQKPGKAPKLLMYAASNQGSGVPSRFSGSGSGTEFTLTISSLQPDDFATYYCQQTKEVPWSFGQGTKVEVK
a: 106

q: Same for Refmab #4 (antibody, V domains shown, Full-length format is human IgG1 Fc silent (PG-LALA); The alanine scan used IgG or Fab) VH: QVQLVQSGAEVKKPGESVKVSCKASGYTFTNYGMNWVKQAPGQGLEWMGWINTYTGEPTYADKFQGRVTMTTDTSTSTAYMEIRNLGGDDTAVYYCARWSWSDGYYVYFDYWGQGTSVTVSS VL: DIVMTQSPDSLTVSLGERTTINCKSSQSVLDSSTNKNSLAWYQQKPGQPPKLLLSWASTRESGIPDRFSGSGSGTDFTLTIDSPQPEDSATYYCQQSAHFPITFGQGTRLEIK
a: 3.1

Data origin: patent US20260242735A1
